# test.target: T1, SLP-76 SH2 domain, His-tagged (UniProt Q13094 422-530)
# T1 chain: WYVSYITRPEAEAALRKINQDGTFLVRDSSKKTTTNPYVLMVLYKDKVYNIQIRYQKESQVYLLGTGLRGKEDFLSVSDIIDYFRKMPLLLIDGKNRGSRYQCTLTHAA
# method: SPR
Where no end group is shown, it is not given here. [ ]: non-standard residue; d: D form. The star is where a group is joined. Biotin = O=C1N[C@H]2[C@H](CS[C@H]2CCCCC(=O)*)N1; pY = N[C@@H](Cc1ccc(OP(=O)(O)O)cc1)C(=O)O
quantity.name: Kd (µM)

INSERT INTO results (binder, value_measured) VALUES
  ('Biotin-STSSGEW[pY]QNFQPPPQPPSEEQFGCPGSPSPQPDSTDNDD[pY]DDISAA [long CD6 peptide phosphorylated at Y629 and Y662]', 1),
  ('Biotin-STSSGEWYQNFQPPPQPPSEEQFGCPGSPSPQPDSTDNDD[pY]DDISAA [long CD6 peptide phosphorylated at Y662]', 1);

Reference source: paper PMC5440646
